Attribution: ChEMBL document CHEMBL1137409

// values below are pEC50; system is Peroxisome proliferator-activated receptor gamma (Homo sapiens, UniProt P37231)
Sequence (P37231 whole entry): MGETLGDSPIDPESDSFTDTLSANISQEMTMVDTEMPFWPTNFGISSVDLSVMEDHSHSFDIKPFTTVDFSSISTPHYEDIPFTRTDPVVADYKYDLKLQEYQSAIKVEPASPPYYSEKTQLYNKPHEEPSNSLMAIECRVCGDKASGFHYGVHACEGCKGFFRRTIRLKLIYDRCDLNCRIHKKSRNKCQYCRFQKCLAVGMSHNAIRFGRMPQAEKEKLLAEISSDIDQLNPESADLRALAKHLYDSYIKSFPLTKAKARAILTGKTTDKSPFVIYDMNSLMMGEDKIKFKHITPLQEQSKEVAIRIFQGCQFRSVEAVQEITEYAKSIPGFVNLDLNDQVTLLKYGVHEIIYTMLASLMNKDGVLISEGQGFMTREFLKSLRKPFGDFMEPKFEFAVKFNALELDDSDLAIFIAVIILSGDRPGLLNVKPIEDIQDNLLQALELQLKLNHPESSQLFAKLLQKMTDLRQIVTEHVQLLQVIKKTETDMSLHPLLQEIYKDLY
One number for each entry, as −log10 of the molar value.

| Smiles code | Test target | pEC50 |
| --- | --- | --- |
| O=C(O)Cc1ccc(COc2cccc(-c3c(Cc4ccccc4)cnc4c(C(F)(F)F)cccc34)c2)cc1 | Peroxisome proliferator-activated receptor gamma (Homo sapiens, UniProt P37231) | 6.17 |

Now for the compound whose pEC50 we want.
Name the recorded pEC50 for `O=C(O)Cc1ccc(CNc2cccc(-c3c(Cc4ccccc4)cnc4c(C(F)(F)F)cccc34)c2)cc1` .
6.49

---

molecular target: Peroxisome proliferator-activated receptor delta (Homo sapiens); test: Agonist activity at human PPAR delta by GAL4 transactivation assay
Sequence (Q03181 whole entry, the tested form may be a part): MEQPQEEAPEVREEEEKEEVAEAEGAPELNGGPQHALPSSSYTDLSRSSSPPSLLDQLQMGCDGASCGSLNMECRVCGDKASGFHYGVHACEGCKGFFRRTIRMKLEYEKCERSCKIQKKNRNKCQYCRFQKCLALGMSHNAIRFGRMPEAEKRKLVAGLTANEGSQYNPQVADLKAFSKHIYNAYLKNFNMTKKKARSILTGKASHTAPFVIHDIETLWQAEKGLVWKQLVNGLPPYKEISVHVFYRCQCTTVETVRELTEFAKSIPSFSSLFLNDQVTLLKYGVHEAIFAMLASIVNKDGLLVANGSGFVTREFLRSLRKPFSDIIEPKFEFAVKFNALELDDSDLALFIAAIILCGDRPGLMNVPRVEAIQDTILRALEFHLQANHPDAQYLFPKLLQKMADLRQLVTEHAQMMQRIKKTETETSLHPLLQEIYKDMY
Readout type: EC50 (nM)
One number for each entry, in nM.

| Smiles code | Readout type | Assay result |
| --- | --- | --- |
| O=C(O)Cc1ccc(COc2cccc(-c3c(Cc4ccccc4)cnc4c(C(F)(F)F)cccc34)c2)cc1 | EC50 | 627 |

Now for the compound whose EC50 we want.
Name the recorded EC50 for `O=C(O)Cc1ccc(CNc2cccc(-c3c(Cc4ccccc4)cnc4c(C(F)(F)F)cccc34)c2)cc1` .
1320

---

molecular target: Oxysterols receptor LXR-beta (Homo sapiens)
Readout type: IC50

Observed IC50 on Oxysterols receptor LXR-beta (Homo sapiens) for `COC(=O)c1ccc(COc2cccc(-c3c(C(=O)c4ccccc4)cnc4c(C(F)(F)F)cccc34)c2)cc1` , please.
> 1000 nM

---

biological target: UniProt Q13133
Readout type: pIC50
Give bare numbers, as −log10 of the molar value.

Name the recorded pIC50 for `O=C(O)Cc1ccc(CNc2cccc(-c3c(Cc4ccccc4)cnc4c(C(F)(F)F)cccc34)c2)cc1` .
8.12

---

experiment: Half life in human liver microsomes at 20 uM; format: ADME, Microsome
Readout type: half-life at 20 µM (min)
One number for each entry, in min.

Name the recorded half-life at 20 µM for `O=C(O)Cc1ccc(COc2cccc(-c3c(C(=O)c4ccccc4)cnc4c(C(F)(F)F)cccc34)c2)cc1` .
3.5

---

Molecular target: Oxysterols receptor LXR-alpha (Homo sapiens)
Sequence (Q13133 whole entry): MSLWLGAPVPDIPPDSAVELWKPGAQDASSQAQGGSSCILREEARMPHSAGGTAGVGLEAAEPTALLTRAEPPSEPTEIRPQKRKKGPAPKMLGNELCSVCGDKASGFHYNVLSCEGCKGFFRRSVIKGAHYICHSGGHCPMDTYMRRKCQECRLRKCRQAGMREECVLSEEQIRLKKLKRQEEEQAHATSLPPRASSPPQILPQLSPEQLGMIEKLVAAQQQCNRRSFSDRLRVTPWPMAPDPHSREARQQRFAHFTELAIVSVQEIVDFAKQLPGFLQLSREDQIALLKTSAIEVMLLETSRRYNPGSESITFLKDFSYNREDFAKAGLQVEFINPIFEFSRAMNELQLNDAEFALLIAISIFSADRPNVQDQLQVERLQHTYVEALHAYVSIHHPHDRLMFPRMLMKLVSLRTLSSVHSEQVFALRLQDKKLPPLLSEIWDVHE
Test: Agonist activity at human LXR alpha expressed in Huh7 cells by GAL4 transactivation assay
Readout type: EC50 (nM)
Give bare numbers, in nM.

Name the recorded EC50 for `O=C(O)Cc1ccc(CNc2cccc(-c3c(Cc4ccccc4)cnc4c(C(F)(F)F)cccc34)c2)cc1` .
160

---

assay: Terminal half life in C57 mouse at 10 mg/kg, po; assay type: ADME, organism-based; parameters: dose 10 mg/kg, route oral; conditions: in vivo, read-out: beta t1/2 (converted)
Readout type: half-life

Name the recorded half-life for `O=C(O)Cc1ccc(CNc2cccc(-c3c(Cc4ccccc4)cnc4c(C(F)(F)F)cccc34)c2)cc1` .
1.3 h

---

biological target: Peroxisome proliferator-activated receptor alpha (Homo sapiens); experiment: Agonist activity at human PPAR alpha by GAL4 transactivation assay
Sequence (Q07869 whole entry, the tested form may be a part): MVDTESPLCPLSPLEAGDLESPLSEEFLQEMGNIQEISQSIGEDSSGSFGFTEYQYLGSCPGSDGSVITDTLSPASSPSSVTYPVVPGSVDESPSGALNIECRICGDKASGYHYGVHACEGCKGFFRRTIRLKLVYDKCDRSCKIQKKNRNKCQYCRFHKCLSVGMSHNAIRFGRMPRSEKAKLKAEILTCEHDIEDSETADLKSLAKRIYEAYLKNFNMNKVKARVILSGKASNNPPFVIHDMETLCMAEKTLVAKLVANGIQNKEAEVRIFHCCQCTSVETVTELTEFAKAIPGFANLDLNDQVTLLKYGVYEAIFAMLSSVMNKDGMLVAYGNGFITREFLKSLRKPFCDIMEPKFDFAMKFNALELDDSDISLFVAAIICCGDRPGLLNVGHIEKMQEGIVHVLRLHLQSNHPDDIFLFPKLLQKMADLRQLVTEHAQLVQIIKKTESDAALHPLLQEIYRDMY
Readout type: pEC50
Answers are plain numbers, as −log10 of the molar value.

| Smiles code | Test target | Assay result |
| --- | --- | --- |
| O=C(O)Cc1ccc(COc2cccc(-c3c(Cc4ccccc4)cnc4c(C(F)(F)F)cccc34)c2)cc1 | Peroxisome proliferator-activated receptor alpha (Homo sapiens) | 5.88 |

Now for the compound whose pEC50 we want.
Name the recorded pEC50 for `O=C(O)Cc1ccc(CNc2cccc(-c3c(Cc4ccccc4)cnc4c(C(F)(F)F)cccc34)c2)cc1` .
5.89

---

experiment: AUC (0-infinity) in C57 mouse at 10 mg/kg, po; type: ADME, organism-based; set-up: time infinity, dose 10 mg/kg, route oral; conditions: plasma
Readout type: AUC(0-inf) (µg·h/mL)
Numbers only, in µg·h/mL.

Name the recorded AUC(0-inf) for `O=C(O)Cc1ccc(CNc2cccc(-c3c(Cc4ccccc4)cnc4c(C(F)(F)F)cccc34)c2)cc1` .
4.44

---

Target: Oxysterols receptor LXR-beta (Homo sapiens, UniProt P55055)
Sequence (P55055 whole entry): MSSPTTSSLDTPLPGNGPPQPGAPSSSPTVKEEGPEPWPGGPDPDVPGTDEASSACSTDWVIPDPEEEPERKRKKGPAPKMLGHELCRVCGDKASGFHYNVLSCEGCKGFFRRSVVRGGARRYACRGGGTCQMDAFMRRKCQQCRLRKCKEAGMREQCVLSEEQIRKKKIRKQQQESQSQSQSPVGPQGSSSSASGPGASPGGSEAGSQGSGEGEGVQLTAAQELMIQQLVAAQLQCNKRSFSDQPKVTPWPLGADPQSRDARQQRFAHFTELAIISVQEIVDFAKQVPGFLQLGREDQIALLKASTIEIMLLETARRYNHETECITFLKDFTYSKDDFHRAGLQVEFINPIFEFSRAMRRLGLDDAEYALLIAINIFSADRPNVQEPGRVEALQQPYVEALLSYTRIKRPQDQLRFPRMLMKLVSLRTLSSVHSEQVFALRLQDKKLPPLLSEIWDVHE
Assay: Agonist activity at human LXR beta expressed in Huh7 cells by GAL4 transactivation assay
Type: functional, cell-based, Huh-7
Readout type: EC50 (nM)
One number for each entry, in nM.

Name the recorded EC50 for `O=C(O)Cc1ccc(CNc2cccc(-c3c(Cc4ccccc4)cnc4c(C(F)(F)F)cccc34)c2)cc1` .
87

---

assay: Bioavailability in C57 mouse at 10 mg/kg, po; type: ADME, organism-based; conditions: in vivo
Readout type: bioavailability (%)
Answers are plain numbers, in %.

Name the recorded bioavailability for `O=C(O)Cc1ccc(CNc2cccc(-c3c(Cc4ccccc4)cnc4c(C(F)(F)F)cccc34)c2)cc1` .
67
